- test target: Beta-2 adrenergic receptor (Homo sapiens)
- assay notes: qHTS assay of beta-arrestin-biased ligands of beta2-adrenergic receptor: Hit Validation with GloSensor
- particulars: W9-Glo22F cells, GloSensor cAMP luminescence, beta2AR agonism
In all, about 1,200 compounds went through this assay and about 85 (7%) were called active. Calls come from the whole dose curve. The list comes from a sample in which actives are over-represented; it also holds close analogues and randomly drawn compounds.
Write down one outcome, taken from t = active, f = inactive

Use the examples below as a reference point.
CCCN(CC(=O)Nc1ccc(Cl)cc1Cl)C(=O)/C=C/c1ccco1 ... f
Cc1cccc(NC(=S)N/N=C/c2cccc([N+](=O)[O-])c2)c1 ... f
CC1=NN(C(N)=S)C(=O)C1N=Nc1ccc(F)cc1 (stereo not drawn) ... f
Cc1ccc(-n2c(SCC(=O)NCc3ccco3)nc3c(sc4ccccc43)c2=O)cc1 ... f
COCCNC(=S)N/N=C(\C)c1ccc(Cl)c(Cl)c1Cl ... f

Exercise: How did this test come out for `COC(=O)COc1cccc2c(=O)n(CC(=O)Nc3ccc4c(c3)OCCO4)ccc12` ?
Solution: f

Exercise: Could you kindly confirm the outcome this assay logged for `CCCC(=O)NC(=S)Nc1ccc(Cl)cn1` ?
Solution: f

Exercise: Test call, this compound: `Cc1ccc(CONC(=O)c2ccccc2Cl)cc1`
Solution: f

Exercise: Could you please tell me the result logged for CC1=NN(C(N)=S)C(=O)C1N=Nc1cccc(C)c1 (stereo not drawn) in this assay?
Solution: f

Exercise: GET /call?item= `C=CC[n+]1c(-c2ccc(C)cc2)csc1NNC(=O)Nc1ccccc1` returns the recorded outcome of this test.
Solution: f

Exercise: Per the records of this test, what outcome belongs to `S=c1ccc2ccccc2[nH]1` ?
Solution: f

Exercise: Assay result, entry `S=c1nc(-c2ccccc2)[nH]c2ccccc12` — outcome?
Solution: t

Exercise: Which outcome did this test record for the compound `COc1ccc(-c2c(-c3ccccc3)c(C(=O)C(=O)NCCCN(C)C)n3ccc4cc(OC)c(OC)cc4c23)cc1OC` ?
Solution: f

Exercise: For `S=c1nc(-c2ccccc2)[nH]c2ccc(Br)cc12` , which call appears in the assay record?
Solution: f
